Assay text: Cytotoxicity activity against human HepG2 cells assessed by CellTiter-Glo luminescent cell viability assay.
Type: toxicity, cell-based
Design: assay stage confirmatory assay, source tissue liver
Cond: HepG2 cells, read-out: IC50 relative
Calls of active or inactive are those of the source. How the calls were made is not given here.
Output constraint: value belongs to active, inactive

INSERT INTO results (compound, assigned_label) VALUES
  ('C[C@@H]1COC(Nc2ccc3ncnc(Nc4ccc(OCc5nccs5)c(Cl)c4)c3c2)=N1', 'inactive');

Kindly provide the recorded test outcome for the following compound: COc1ccc(-c2nnc(Cn3ncc(Cl)c(Cl)c3=O)o2)cc1
active

Kindly provide the recorded test outcome for the following compound: CCCCOc1ccc(C(=O)N2CCN(S(=O)(=O)c3ccc4c(c3)OCCCO4)CC2)cc1
inactive

Kindly provide the recorded test outcome for the following compound: CCC(C)NC(=O)N1CC(Oc2ccc(-c3noc(C4CCOCC4)n3)cc2)C1 (stereo not given)
active

Kindly provide the recorded test outcome for the following compound: Cc1nc(Nc2cnn(C3CCNCC3)c2)nc2c1N(C)C(=O)c1cc3ccccc3cc1N2C
active
